The values you see were collected from patent US20100022483A1.

tested on: 3T3 fibroblast cells; test: In vitro phototoxicity assay (neutral red; UV light-treated vs dark control plates); format: cell-based; details: UV light 50 minutes
Parameter: Photo Toxicity UV Tox50

Smiles code	Target or system	Photo Toxicity UV Tox50
CN(C)[C@@H]1C(O)=C(C(N)=O)C(=O)[C@@]2(O)C(O)=C3C(=O)c4c(O)ccc(-c5cccc(C(=O)NCC[N+](C)(C)C)c5)c4C[C@H]3C[C@@H]12	3T3 fibroblast cells	>123.61 µM
CN(CCOC(C)(C)C)Cc1cccc(-c2ccc(O)c3c2C[C@H]2C[C@H]4[C@H](N(C)C)C(O)=C(C(N)=O)C(=O)[C@@]4(O)C(O)=C2C3=O)c1	3T3 fibroblast cells	5.93 µM

*Q* Find the measured Photo Toxicity UV Tox50: item `CN1CCN(C(=O)c2cccc(-c3ccc(O)c4c3C[C@H]3C[C@H]5[C@H](N(C)C)C(O)=C(C(N)=O)C(=O)[C@@]5(O)C(O)=C3C4=O)c2)CC1` , target or system 3T3 fibroblast cells.
*A* >137.76 µM

====

test system: 3T3 fibroblast cells; assay: In vitro phototoxicity assay (neutral red; UV light-treated vs dark control plates); type: cell-based; details: UV light 50 minutes
Parameter Photo Toxicity UV Tox50: see the listing below.

Check out these entries, answers already filled in.
Compound	Photo Toxicity UV Tox50
CC(C)N(C)CC(=O)c1ccc(O)c2c1C[C@H]1C[C@H]3[C@H](N(C)C)C(O)=C(C(N)=O)C(=O)[C@@]3(O)C(O)=C1C2=O	>149.87 µM
CCN(CC)CCCC(C)NC(=O)c1ccc(O)c2c1C[C@H]1C[C@H]3[C@H](N(C)C)C(O)=C(C(N)=O)C(=O)[C@@]3(O)C(O)=C1C2=O (some centres unmarked)	>108.86 µM
CCOC(=O)CCNC(=O)c1cccc(-c2ccc(O)c3c2C[C@H]2C[C@H]4[C@H](N(C)C)C(O)=C(C(N)=O)C(=O)[C@@]4(O)C(O)=C2C3=O)c1	>141.76 µM
CN(C)CCCN(C)Cc1cccc(-c2ccc(O)c3c2C[C@H]2C[C@H]4[C@H](N(C)C)C(O)=C(C(N)=O)C(=O)[C@@]4(O)C(O)=C2C3=O)c1	>123.6 µM
CN(C)CCN(C)C(=O)c1cccc(-c2ccc(O)c3c2C[C@H]2C[C@H]4[C@H](N(C)C)C(O)=C(C(N)=O)C(=O)[C@@]4(O)C(O)=C2C3=O)c1	>137.36 µM
CN(C)[C@@H]1C(O)=C(C(N)=O)C(=O)[C@@]2(O)C(O)=C3C(=O)c4c(O)ccc(-c5ccc(NC(=O)CNC(C)(C)C)cc5)c4C[C@H]3C[C@@H]12	>137.36 µM

*Q* Find the measured Photo Toxicity UV Tox50: item `CN(C)CCNCc1cccc(-c2ccc(O)c3c2C[C@H]2C[C@H]4[C@H](N(C)C)C(O)=C(C(N)=O)C(=O)[C@@]4(O)C(O)=C2C3=O)c1` , target or system 3T3 fibroblast cells.
*A* >139.98 µM

*Q* Find the measured Photo Toxicity UV Tox50: item `CN(C)[C@@H]1C(O)=C(C(N)=O)C(=O)[C@@]2(O)C(O)=C3C(=O)c4c(O)ccc(C(=O)CNCc5ccco5)c4C[C@H]3C[C@@H]12` , target or system 3T3 fibroblast cells.
*A* >144.12 µM

*Q* Find the measured Photo Toxicity UV Tox50: item `CN(C)[C@@H]1C(O)=C(C(N)=O)C(=O)[C@@]2(O)C(O)=C3C(=O)c4c(O)ccc(-c5cccc(C(=O)NCc6ccco6)c5)c4C[C@H]3C[C@@H]12` , target or system 3T3 fibroblast cells.
*A* >146.13 µM

*Q* Find the measured Photo Toxicity UV Tox50: item `CN(C)[C@@H]1C(O)=C(C(N)=O)C(=O)[C@@]2(O)C(O)=C3C(=O)c4c(O)ccc(C(=O)CNCC(N)=O)c4C[C@H]3C[C@@H]12` , target or system 3T3 fibroblast cells.
*A* >118.96 µM

*Q* Find the measured Photo Toxicity UV Tox50: item `CC(=O)NCCNC(=O)c1cccc(-c2ccc(O)c3c2C[C@H]2C[C@H]4[C@H](N(C)C)C(O)=C(C(N)=O)C(=O)[C@@]4(O)C(O)=C2C3=O)c1` , target or system 3T3 fibroblast cells.
*A* >129.75 µM
